- Target Or System: T1, wildtype feline IL-31 protein (Feline_IL31_wildtype) (feline)
- T1 construct: Full length feline IL-31 with C-terminal His tag, secreted from ExpiCHO cells; also called fIL-31
- T1 chain: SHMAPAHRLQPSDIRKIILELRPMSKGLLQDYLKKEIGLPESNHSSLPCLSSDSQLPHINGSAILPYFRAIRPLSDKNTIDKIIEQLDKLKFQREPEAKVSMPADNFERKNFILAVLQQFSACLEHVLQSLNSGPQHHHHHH
- Run Description: Biacore, feline IL-31 chip, mAb 100 nM, share of points within parent mean +/-3 SD
- Design: key: % of mutant data points within parent mAb mean ±3 SD
Assay Endpoint: Binding Similarity score

Query block: What does the record list as Binding Similarity score for A10 (antibody, V domains shown) VH: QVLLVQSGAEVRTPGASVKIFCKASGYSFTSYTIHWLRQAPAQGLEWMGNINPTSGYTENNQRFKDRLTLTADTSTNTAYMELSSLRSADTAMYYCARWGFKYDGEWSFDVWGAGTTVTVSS VL: EIQMTQSPSSLSASPGDRVTITCRASQGIAIWLSWYQQKPGNIPKVLINKASNLHIGVPSRFSGSGSGTDFTLTISSLEPEDAATYYCLQSQTYPLTFGGGTKLEIK ?
Result block: 63.4
